As shown below, each of these compounds has a reported IC50 value.
Biological target: PI3K γ (Homo sapiens)
Construct: purchased Sigma
Sequence (P48736 whole entry): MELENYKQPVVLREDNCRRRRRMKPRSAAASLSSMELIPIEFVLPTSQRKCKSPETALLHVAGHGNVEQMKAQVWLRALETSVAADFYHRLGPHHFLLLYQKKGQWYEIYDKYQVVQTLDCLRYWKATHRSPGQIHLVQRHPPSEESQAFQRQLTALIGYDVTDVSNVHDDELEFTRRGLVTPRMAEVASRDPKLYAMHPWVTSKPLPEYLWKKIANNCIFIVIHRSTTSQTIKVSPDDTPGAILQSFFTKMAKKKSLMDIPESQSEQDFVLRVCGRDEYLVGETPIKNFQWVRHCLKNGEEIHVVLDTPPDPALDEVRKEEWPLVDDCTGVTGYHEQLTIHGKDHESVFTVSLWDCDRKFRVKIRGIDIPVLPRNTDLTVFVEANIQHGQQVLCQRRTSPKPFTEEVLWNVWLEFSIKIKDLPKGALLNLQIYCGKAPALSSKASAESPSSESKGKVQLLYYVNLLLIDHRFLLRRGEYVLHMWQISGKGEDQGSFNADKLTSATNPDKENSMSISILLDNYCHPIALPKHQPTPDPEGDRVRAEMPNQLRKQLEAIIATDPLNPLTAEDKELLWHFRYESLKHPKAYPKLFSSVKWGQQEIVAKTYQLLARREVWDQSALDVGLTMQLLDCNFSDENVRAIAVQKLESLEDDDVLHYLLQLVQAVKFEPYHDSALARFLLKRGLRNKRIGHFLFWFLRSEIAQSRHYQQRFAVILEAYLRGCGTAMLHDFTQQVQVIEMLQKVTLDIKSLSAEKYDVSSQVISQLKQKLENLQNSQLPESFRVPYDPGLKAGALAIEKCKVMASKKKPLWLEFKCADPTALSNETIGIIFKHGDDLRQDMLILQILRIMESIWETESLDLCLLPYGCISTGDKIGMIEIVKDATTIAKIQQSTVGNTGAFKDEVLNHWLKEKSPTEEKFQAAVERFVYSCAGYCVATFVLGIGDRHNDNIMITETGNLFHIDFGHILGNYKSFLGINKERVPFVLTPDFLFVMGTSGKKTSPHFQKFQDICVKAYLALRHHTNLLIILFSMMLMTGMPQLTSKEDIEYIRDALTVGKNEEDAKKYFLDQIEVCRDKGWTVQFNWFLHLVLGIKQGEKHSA
Experiment: PI3K γ in vitro kinase inhibition assay
Type: biochemical

For record Cc1cc2c(=O)n(-c3ccccc3C)c(Cn3nc(Br)c4c(N)ncnc43)nc2s1 the listed IC50 is > 10 µM

For record Cc1csc2nc(Cn3nc(C#C[C@@H](C)O)c4c(N)ncnc43)n(-c3ccccc3F)c(=O)c12 the listed IC50 is < 0.1 µM

For record Cc1cc2c(=O)n(-c3ccccc3C)c(Cn3nc(-c4cccc(O)c4)c4c(N)ncnc43)nc2s1 the listed IC50 is > 10 µM

For record Cc1ccccc1-n1c(Cn2nc(-c3cccc(O)c3)c3c(N)ncnc32)nc2sc(C)c(C)c2c1=O the listed IC50 is > 10 µM

For record Cc1csc2nc(Cn3nc(-c4ccc(F)c(O)c4)c4c(N)ncnc43)n(-c3ccccc3F)c(=O)c12 the listed IC50 is < 1 µM

For record Cc1nn(Cc2nc3nccc(C)c3c(=O)n2-c2ccccc2F)c2ncnc(N)c12 the listed IC50 is > 10 µM

Please look at the following compound next.
For record Cc1ccccc1-n1c(Cn2nc(-c3cccc(O)c3)c3c(N)ncnc32)nc2c(C)nn(C)c2c1=O the listed IC50 is > 10 µM

Sourced from patent US9822131B2
